Experiment: Cytotoxicity against human A549 cells after 4 days by coulter counting method
Format: cell-based
Param label: returns criterion met when CC50 at 96 h < 70 µM, returns criterion not met otherwise, including exact equality.

smilesData	class
CCOC(=O)[C@H](Cc1ccccc1)NP(=O)(CCOCC(COCCP(=O)(N[C@@H](Cc1ccccc1)C(=O)OCC)N[C@@H](Cc1ccccc1)C(=O)OCC)Cn1c(Br)nc2c(=O)[nH]cnc21)N[C@@H](Cc1ccccc1)C(=O)OCC	criterion met
CCOC(=O)[C@H](Cc1ccccc1)NP(=O)(CCOCC(COCCP(=O)(N[C@@H](Cc1ccccc1)C(=O)OCC)N[C@@H](Cc1ccccc1)C(=O)OCC)Cn1ccc2c(=O)[nH]cnc21)N[C@@H](Cc1ccccc1)C(=O)OCC	criterion met
CCOC(=O)[C@H](Cc1ccccc1)NP(=O)(CCOCC(COCCP(=O)(N[C@@H](Cc1ccccc1)C(=O)OCC)N[C@@H](Cc1ccccc1)C(=O)OCC)Cn1cnc2c(=O)[nH]cnc21)N[C@@H](Cc1ccccc1)C(=O)OCC	criterion met
CCOC(=O)[C@H](Cc1ccccc1)NP(=O)(CCOCC(COCCP(=O)(N[C@@H](Cc1ccccc1)C(=O)OCC)N[C@@H](Cc1ccccc1)C(=O)OCC)n1cnc2c(=O)[nH]c(N)nc21)N[C@@H](Cc1ccccc1)C(=O)OCC	criterion not met
CCOC(=O)[C@H](Cc1ccccc1)NP(=O)(CCOCC(COCCP(=O)(N[C@@H](Cc1ccccc1)C(=O)OCC)N[C@@H](Cc1ccccc1)C(=O)OCC)Cn1cnc2c(=O)[nH]c(N)nc21)N[C@@H](Cc1ccccc1)C(=O)OCC	criterion not met
CCOC(=O)[C@H](Cc1ccccc1)NP(=O)(CCOCC(COCCP(=O)(N[C@@H](Cc1ccccc1)C(=O)OCC)N[C@@H](Cc1ccccc1)C(=O)OCC)Cn1ccc2c(=O)[nH]c(N)nc21)N[C@@H](Cc1ccccc1)C(=O)OCC	criterion not met
CCOC(=O)[C@H](Cc1ccccc1)NP(=O)(CCOCC(COCCP(=O)(N[C@@H](Cc1ccccc1)C(=O)OCC)N[C@@H](Cc1ccccc1)C(=O)OCC)n1cnc2c(=O)[nH]cnc21)N[C@@H](Cc1ccccc1)C(=O)OCC	criterion not met
CCOC(=O)[C@H](Cc1ccccc1)NP(=O)(CCOCC(COCCP(=O)(N[C@@H](Cc1ccccc1)C(=O)OCC)N[C@@H](Cc1ccccc1)C(=O)OCC)n1ccc2c(=O)[nH]c(N)nc21)N[C@@H](Cc1ccccc1)C(=O)OCC	criterion not met
CCOC(=O)[C@H](Cc1ccccc1)NP(=O)(CCOCC(COCCP(=O)(N[C@@H](Cc1ccccc1)C(=O)OCC)N[C@@H](Cc1ccccc1)C(=O)OCC)Cn1c(Br)nc2c(=O)[nH]c(N)nc21)N[C@@H](Cc1ccccc1)C(=O)OCC	criterion not met
CCOC(=O)[C@H](Cc1ccccc1)NP(=O)(CCOCC(COCCP(=O)(N[C@@H](Cc1ccccc1)C(=O)OCC)N[C@@H](Cc1ccccc1)C(=O)OCC)n1ccc2c(=O)[nH]cnc21)N[C@@H](Cc1ccccc1)C(=O)OCC	criterion not met
CCOC(=O)[C@H](Cc1ccccc1)NP(=O)(CCOCC(COCCP(=O)(N[C@@H](Cc1ccccc1)C(=O)OCC)N[C@@H](Cc1ccccc1)C(=O)OCC)n1c(Br)nc2c(=O)[nH]cnc21)N[C@@H](Cc1ccccc1)C(=O)OCC	criterion not met
